Data origin: patent US12295937B2

test description: Rat plasma pharmacokinetics by administration route
Type: in vivo
condition details: male, SD, IP 15 mg/kg
outcome measure: half-life (min)

In [3]: df
Out[3]:
                                   compound  experimental_result
0  CNC(C)C(=O)c1ccc2c(c1)OCO2 (stereo not shown) [Methylone, 3,4-methylenedioxy-N-methylcathinone]                 56.1

* * *

target: DAT (Rattus norvegicus)
Sequence (P23977 whole entry): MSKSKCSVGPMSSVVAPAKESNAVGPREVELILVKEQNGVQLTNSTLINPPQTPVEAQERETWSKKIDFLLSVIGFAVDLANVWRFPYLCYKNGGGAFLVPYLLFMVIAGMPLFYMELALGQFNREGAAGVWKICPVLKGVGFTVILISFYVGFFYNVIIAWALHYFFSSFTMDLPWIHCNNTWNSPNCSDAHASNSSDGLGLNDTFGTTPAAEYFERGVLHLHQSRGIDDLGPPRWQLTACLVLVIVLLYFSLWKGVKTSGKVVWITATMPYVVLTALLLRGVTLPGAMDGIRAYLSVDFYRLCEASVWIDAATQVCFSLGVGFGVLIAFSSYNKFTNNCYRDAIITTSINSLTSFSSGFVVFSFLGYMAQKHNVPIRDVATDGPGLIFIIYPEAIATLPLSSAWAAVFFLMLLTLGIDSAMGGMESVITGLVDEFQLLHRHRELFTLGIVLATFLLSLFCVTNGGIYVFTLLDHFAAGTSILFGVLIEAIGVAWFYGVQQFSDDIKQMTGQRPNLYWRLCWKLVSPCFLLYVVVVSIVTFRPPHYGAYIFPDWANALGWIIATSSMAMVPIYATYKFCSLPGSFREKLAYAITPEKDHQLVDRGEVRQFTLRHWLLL
test description: [3H]DA release from rat brain synaptosomes
Type: biochemical
Parameters: from tissue; synaptosomes for uptake and release
condition details: rat brain synaptosomes; read-out: Neurotransmitter release: EC50
pEC50: −log10 of the molar value.
outcome measure: pEC50

In [3]: df
Out[3]:
                                   compound                   target  experimental_result
0  CNC(C)C(=O)c1ccc2c(c1)OCO2 (stereo not shown)  DAT (Rattus norvegicus)                 5.32
